FYI, the data here is from PubChem BioAssay (NCI).

Test system: SR leukemia
Assay: NCI tumour cell line growth inhibition, 48 h
Listed next: entries and their corresponding TGI.
READOUT KIND: TGI

COMPOUND	TARGET ENTITY	READOUT KIND	RECORDED MEASUREMENT
CCOC(=O)CNC(=O)C(C)NC(=O)C(NC(=O)CC(c1ncc[nH]1)c1ncc[nH]1)C(C)CC (configuration not stated)	SR leukemia	TGI	> 100 µM
COc1ccc(-c2c(N)n(-c3cccc(C(=O)O)c3)c(=O)c3cc([N+](=O)[O-])ccc23)cc1	SR leukemia	TGI	> 100 µM
OC1(c2cc3ccccc3s2)CCCCC1	SR leukemia	TGI	> 100 µM
CCc1ccc2[nH]c(O)c(-c3[nH]c4ccccc4c3N=O)c2c1	SR leukemia	TGI	> 100 µM
Cc1nc2ccc(S(=O)(=O)O)cc2c(=O)n1-c1ccc(C(=O)NN2C(=O)C(Cl)C2c2ccccc2O)cc1 (configuration not stated)	SR leukemia	TGI	> 100 µM
Cc1c(C)[n+](=O)c(C)c(C)n1[O-]	SR leukemia	TGI	> 100 µM
CCOC(=O)/C=C(/C(=O)OCC)n1cc(C)c(=O)n(Cc2cn(COCCOC(C)=O)nn2)c1=O	SR leukemia	TGI	> 94.9 µM
COc1cccc(/C=N/[N-]C(N)=O)c1[O-].[Ni+2].[OH3+].c1cnc2c(c1)ccc1cccnc12	SR leukemia	TGI	> 100 µM
Cc1[nH]c2ccccc2c1C=Nc1ccc(N=Cc2c(C)[nH]c3ccccc23)cc1	SR leukemia	TGI	46.9 µM
COc1cccc2c1C(=O)c1c(O)c3c(c(O)c1C2=O)C[C@@](O)(C(=O)CO)C[C@@H]3OC1C[C@H](N)[C@H](O)[C@H](C)O1 (some centres not stated)	SR leukemia	TGI	0.826 µM
C(=C\c1ccccc1)/C=N/c1nc2cc3sc(/N=C/C=C/c4ccccc4)nc3cc2s1	SR leukemia	TGI	32.4 µM
c1ccc(-n2nnnc2-c2cccc3ccccc23)cc1	SR leukemia	TGI	74.4 µM
CNC(=O)c1cc(NC(=O)N(CCC#N)CCN(C(=O)N[C@@H](Cc2ccccc2)C(=O)N[C@@H](CC(C)C)C(=O)NC)c2ccccc2)ccc1OC	SR leukemia	TGI	68.9 µM
COc1ccc(N=N/C(=N/NC(=O)c2ccccc2)c2ccc(N(CCC#N)CCC#N)cc2C)cc1	SR leukemia	TGI	> 100 µM
Cc1ccc(N2CCc3c(C)c(C#N)c4nc5ccccc5n4c32)cc1	SR leukemia	TGI	> 100 µM
C=C1C(=O)O[C@H]2[C@H]1CC/C(COC(=O)NCCc1c[nH]c3ccc(OC)cc13)=C\CC[C@@]1(C)O[C@@H]21	SR leukemia	TGI	9.33 µM
O=C1NC2(CCCCC2)C2CCCCCC12 (configuration not stated)	SR leukemia	TGI	> 100 µM
CN(C)C(=O)c1cc2cnc(Nc3ccc(-c4csc5c(=O)cc(N6CCOCC6)oc45)cc3)nc2n1C1CCCC1	SR leukemia	TGI	> 80 µM
CO[C@@H]1/C=C(C)/C=C/[C@@H](C)/C=C(\C)C(=O)OC(/C(C)=C/C=C(\C)CNC(=O)[C@H](CO)NC=O)[C@@H](C)/C=C/C=C/[C@H](OC)CC/C=C(C)/C=C/C1 (some centres not stated)	SR leukemia	TGI	> 11.9 µM
Cc1cn(CC2=NCC(C)(C)N2)c(=O)[nH]c1=O	SR leukemia	TGI	> 100 µM
CN1CC(C(=O)C2C(=O)c3ccccc3C2=O)C(=O)C(=O)C(C(=O)C2C(=O)c3ccccc3C2=O)C1 (configuration not stated)	SR leukemia	TGI	> 100 µM
N#CCc1ncc(-c2ccc(C(F)(F)F)cc2)c(NC2CCCCCC2)n1	SR leukemia	TGI	> 10 µM
O=C1/C(=C/c2ccccc2[N+](=O)[O-])N=C(c2ccccc2)N1C1Nc2cc3c(cc2S1)NC(N1C(=O)/C(=C/c2ccccc2[N+](=O)[O-])N=C1c1ccccc1)S3 (configuration not stated)	SR leukemia	TGI	90.3 µM
COP(=O)(OC)C(Cc1c[nH]c2ccccc12)NC(=O)OCc1ccccc1 (configuration not stated)	SR leukemia	TGI	> 100 µM
Cc1ccc2c(O)c(O)cc(NC(C)CCCN)c2n1 (configuration not stated)	SR leukemia	TGI	79.3 µM
C1OC1CO[C@@H]1CO[C@H]2[C@@H]1OC[C@H]2OCC1CO1 (some centres not stated)	SR leukemia	TGI	> 100 µM
CCCCOC(=O)NC(=O)c1cn(CCSCCOC(=O)NCCCCCCNC(=O)OCCSCCn2cc(C(=O)NC(=O)OCCCC)c(=O)[nH]c2=O)c(=O)[nH]c1=O	SR leukemia	TGI	> 100 µM
NS(=O)(=O)c1cccc(N=Cc2c(O)[nH]c3ccccc23)c1	SR leukemia	TGI	> 25 µM
C1CCC(OC2CSC2)OC1 (configuration not stated)	SR leukemia	TGI	> 100 µM
O=c1cc(-c2ccccc2)[nH]n1-c1nc2ccccc2[nH]1	SR leukemia	TGI	> 100 µM
COc1cc(-c2nc3sc4c(c3c(=O)[nH]2)CCCCCC4)cc(OC)c1OC	SR leukemia	TGI	> 33.2 µM
COc1ccc(C(=O)c2cc3c(OC)c(OC)c(OC)cc3[nH]2)cc1	SR leukemia	TGI	2.57 µM
